The origin of these recorded values is BindingDB's records for doi:10.1016/j.bmcl.2008.10.099.

- TARGET: Potassium voltage-gated channel subfamily A member 5 (Homo sapiens)
- Sequence (P22460 whole entry): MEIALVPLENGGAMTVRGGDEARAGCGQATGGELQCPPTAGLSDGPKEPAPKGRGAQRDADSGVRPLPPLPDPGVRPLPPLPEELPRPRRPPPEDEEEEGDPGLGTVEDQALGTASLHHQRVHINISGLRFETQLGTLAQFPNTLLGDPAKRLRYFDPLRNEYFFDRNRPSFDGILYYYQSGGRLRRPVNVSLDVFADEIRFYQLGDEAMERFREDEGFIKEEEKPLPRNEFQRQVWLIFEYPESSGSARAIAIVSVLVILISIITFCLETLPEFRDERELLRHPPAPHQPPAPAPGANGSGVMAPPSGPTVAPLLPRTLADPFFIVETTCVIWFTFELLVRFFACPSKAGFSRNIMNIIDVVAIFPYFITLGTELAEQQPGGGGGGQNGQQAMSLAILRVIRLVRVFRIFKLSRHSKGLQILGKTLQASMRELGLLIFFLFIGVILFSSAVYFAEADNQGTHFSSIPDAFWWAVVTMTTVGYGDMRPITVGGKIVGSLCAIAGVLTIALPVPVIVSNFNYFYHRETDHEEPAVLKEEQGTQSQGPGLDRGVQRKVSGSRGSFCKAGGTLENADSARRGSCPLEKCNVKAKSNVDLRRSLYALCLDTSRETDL
- METHOD_SUMMARY: Inhibition of human Kv1.5 channel expressed in mouse L929 cells by EP voltage clamp technique
MEASUREMENT_KIND: IC50 (nM)

[[record]]
compound = "CC1=Nc2ccnn2C(c2sc3ccccc3c2C)C1C(=O)N1CCN(c2ccc(F)cc2)CC1 (stereo not drawn)"
measurement_kind = "IC50"
unit_annotation = "nM"
readout_value = 200

[[record]]
compound = "CC1=Nc2ccnn2C(c2cc3ccccc3o2)C1C(=O)N1CCN(c2ccc(F)cc2)CC1 (stereo not drawn)"
measurement_kind = "IC50"
unit_annotation = "nM"
readout_value = 160

[[record]]
compound = "COC[C@@H]1CCCN1C(=O)C1C(C)=Nc2ccnn2C1c1ccc(Cl)c(Cl)c1 (stereo partly drawn)"
measurement_kind = "IC50"
unit_annotation = "nM"
readout_value = 200

